Source listed as patent US20250197428A1.

The reader will find reported efflux ratio at 2 h, 5 μM values listed item by item below.
ASSAY SUMMARY: Caco-2 permeation assay, bidirectional permeability
Type: in vitro ADME
CONDITIONS USED: human, Caco-2, pH 7.4, 5 μM, Papp(B-A)/Papp(A-B)

Example compounds with recorded efflux ratio at 2 h, 5 μM:
COMPOUND: Cc1cc(NC(=O)c2ccc(NS(=O)(=O)CCO)cc2N2CC[Si](C)(C)CC2)nc(N2CCOC3(CC3)C2)n1 [Example 102]
efflux ratio at 2 h, 5 μM: ≥ 10

COMPOUND: Cc1cc(NC(=O)c2ccc(NS(=O)(=O)CCO)cc2N2CC[C@@]3(C(F)F)C[C@H]3C2)nc(N2CCC(F)(F)CC2)c1 [Example 48]
efflux ratio at 2 h, 5 μM: ≥ 10

Record Cc1cc(NC(=O)c2ccc(NS(=O)(=O)[C@@H](C)CO)cc2N2CC[Si](C)(C)CC2)nc(N2CCC(F)(F)CC2)n1 [Example 112] . Reported efflux ratio at 2 h, 5 μM: ≥ 10
